Test system: aggressive behaviour in male mice
Experiment: Inhibition of aggressive behaviour in male mice (Test 1)
Format: in vivo
Conditions: Mus musculus, sc; mice, s.c.; read-out: Inhibition of agression, mice ED50
Structures can show the parent of a compound that is named as a salt.
READOUT LABEL: log10 of ED50 (log10 of the value in mg/kg)

COMPOUND	ASSAY TARGET	REPORTED MEASUREMENT
CCCOC1(CC)CCN(CCCC(=O)c2ccc(F)cc2)CC1	aggressive behaviour in male mice	-0.15
COC1(C(C)C)CCN(CCCC(=O)c2ccc(F)cc2)CC1.Cl	aggressive behaviour in male mice	-0.82
CCCCCC1(OCC)CCN(CCCC(=O)c2ccc(F)cc2)CC1	aggressive behaviour in male mice	-0.30
CC1CCN(CCCC(=O)c2ccc(F)cc2)CC1 [Methylperon, reference compound]	aggressive behaviour in male mice	0.34
CCCCOC1(C)CCN(CCCC(=O)c2ccc(F)cc2)CC1.Cl	aggressive behaviour in male mice	-0.46
CCCC1(OC)CCN(CCCC(=O)c2ccc(F)cc2)CC1	aggressive behaviour in male mice	-0.30
CCC1(OC)CCN(CCCC(=O)c2ccc(F)cc2)CC1	aggressive behaviour in male mice	-0.15
CCCCC1(OCC)CCN(CCCC(=O)c2ccc(F)cc2)CC1	aggressive behaviour in male mice	-0.46
CCOC1(CC)CCN(CCCC(=O)c2ccc(F)cc2)CC1 [Example 6, hydrochloride]	aggressive behaviour in male mice	-1.10
COC1(C)CCN(CCCC(=O)c2ccc(F)cc2)CC1	aggressive behaviour in male mice	-0.70
CCOC1(C)CCN(CCCC(=O)c2ccc(F)cc2)CC1	aggressive behaviour in male mice	-0.15
CCCOC1(C)CCN(CCCC(=O)c2ccc(F)cc2)CC1	aggressive behaviour in male mice	-0.46

###

Assay: Cataleptogenic effect in rats (measure of the extrapyramidal side effects) (Test 4)
Assay type: in vivo
Conditions: rat, in vivo, sc
READOUT LABEL: ED50 (mg/kg)

COMPOUND	READOUT LABEL	REPORTED MEASUREMENT
CC1CCN(CCCC(=O)c2ccc(F)cc2)CC1 [Methylperon, reference compound]	ED50	12

###

Assay: Cataleptogenic effect in rats (measure of the extrapyramidal side effects) (Test 4)
Assay type: in vivo
Details: rat, in vivo, sc; rats, s.c.; measure of the extrapyramidal side effects; read-out: Cataleptogenic effect, rats ED50
From the text: 4. Cataleptogenic effect in rats (measure of the extrapyramidal side effects). 4. Stille, G. in Schweiz.
Examples of molecules with documented ED50 follow.

MOLECULE	UNIT INFO	ED50
CN(C)CCCN1c2ccccc2Sc2ccc(Cl)cc21 [Chlorpromazine, reference compound]	mg/kg	4.5
COC1(C(C)C)CCN(CCCC(=O)c2ccc(F)cc2)CC1.Cl [Example 10]	mg/kg	5
CCC1(OC)CCN(CCCC(=O)c2ccc(F)cc2)CC1 [Example 5]	mg/kg	10
CCOC1(C)CCN(CCCC(=O)c2ccc(F)cc2)CC1 [Example 2]	mg/kg	6
O=C(CCCN1CCC(O)(c2ccc(Cl)cc2)CC1)c1ccc(F)cc1 [Haloperidol, reference compound]	mg/kg	0.27
CCCCCC1(OCC)CCN(CCCC(=O)c2ccc(F)cc2)CC1 [Example 13]	mg/kg	6.8
CCCCOC1(C)CCN(CCCC(=O)c2ccc(F)cc2)CC1.Cl [Example 4]	mg/kg	20
CCCOC1(CC)CCN(CCCC(=O)c2ccc(F)cc2)CC1 [Example 7]	mg/kg	6
CCCCC1(OCC)CCN(CCCC(=O)c2ccc(F)cc2)CC1 [Example 12]	mg/kg	3
